In this section we review reported IC50 values for a set of compounds.
Tested on: Amyloid-β peptide release (Aβ42), HEK cells overexpressing APP (HEK-APP)
Assay: Amyloid-β peptide release (Aβ42) assay, AlphaLISA on supernatant of HEK-APP cells
Assay type: cell-based
Measurement parameters: Homo sapiens, HEK293, 24 h incubation with compound, read-out: Ab42 IC50 Ranges

get_value(item= "Cc1ncc2oc(-c3ccc(NC(=O)c4ccc(F)c(OC(F)(F)F)c4)cn3)nn12" , readout=IC50) returns 1000 to 2200 nM

The measured IC50 associated with "Cc1ncc2sc(C(=O)N(C)Cc3cccc(Cl)c3)nn12" reads 500 to 1000 nM

# IC50 of "Cc1ncc2oc(-c3ccc(NC(=O)Cc4ccc(F)cc4Cl)cc3)nn12" = 1000 to 2200 nM
